Value source: the supplement of paper PMC10307832

# System: NCI-H1395
# Assay protocol: relative viability (nuclei count vs DMSO), 5 days (fraction); higher = more cells survive
# Measurement setup: first compound 0.03162 µM
Recorded endpoint: relative viability
Lab note: record just the number, no unit beside it.

Exam item: Fill: relative viability (NCI-H1395) for this compound O=c1cc(N2CCOCC2)oc2c(-c3cccc4c3sc3ccccc34)cccc12 + COc1cc2c(Oc3ccc(NC(=O)C4(C(=O)Nc5ccc(F)cc5)CC4)cc3F)ccnc2cc1OCCCN1CCOCC1 [Foretinib] (partner 0.25 µM)
Marked response: 0.915

Exam item: Fill: relative viability (NCI-H1395) for this compound O=c1cc(N2CCOCC2)oc2c(-c3cccc4c3sc3ccccc34)cccc12 + CC(=O)c1c(C)c2cnc(Nc3ccc(N4CCNCC4)cn3)nc2n(C2CCCC2)c1=O [Palbociclib] (partner 0.5 µM)
Marked response: 0.547

----------
# Test system: NCI-H1437
# Assay protocol: relative viability (nuclei count vs DMSO), 5 days (fraction); higher = more cells survive
# Measurement setup: first compound 0.03162 µM
Lab note: cut-off is 0.9. Strictly less in relative viability is Yes. Exactly 0.9 or more is No.

Molecule: CCN(CC)CCCCNc1ncc2cc(-c3cc(OC)cc(OC)c3)c(NC(=O)NC(C)(C)C)nc2n1 + C[C@@H](Oc1cc(-c2cnn(C3CCNCC3)c2)cnc1N)c1c(Cl)ccc(F)c1Cl [Crizotinib] (partner 1 µM)
Study system: NCI-H1437
Qualitative label: No

Molecule: O=c1cc(N2CCOCC2)oc2c(-c3cccc4c3sc3ccccc34)cccc12 + Cc1cc(Nc2cc(N3CCN(C)CC3)nc(Sc3ccc(NC(=O)C4CC4)cc3)n2)n[nH]1 [Tozasertib] (partner 0.1 µM)
Study system: NCI-H1437
Qualitative label: Yes

Molecule: O=c1cc(N2CCOCC2)oc2c(-c3cccc4c3sc3ccccc34)cccc12 + COc1cc2c(Oc3ccc(NC(=O)C4(C(=O)Nc5ccc(F)cc5)CC4)cc3F)ccnc2cc1OCCCN1CCOCC1 [Foretinib] (partner 0.25 µM)
Study system: NCI-H1437
Qualitative label: No

Exam item: Strictly below 0.9: is that where relative viability of O=c1cc(N2CCOCC2)oc2c(-c3cccc4c3sc3ccccc34)cccc12 + Cc1nc(NC(=O)N2CCC[C@H]2C(N)=O)sc1-c1ccnc(C(C)(C)C(F)(F)F)c1 [Alpelisib] (partner 2 µM) sits?
Marked response: No

Exam item: Strictly below 0.9: is that where relative viability of CCN(CC)CCCCNc1ncc2cc(-c3cc(OC)cc(OC)c3)c(NC(=O)NC(C)(C)C)nc2n1 + Nc1ncn([C@H]2C[C@H](O)[C@@H](CO)O2)c(=O)n1 [Decitabine] (partner 2 µM) sits?
Marked response: Yes

----------
# System: NCI-H322M
# Assay protocol: relative viability (nuclei count vs DMSO), 5 days (fraction); higher = more cells survive
# Measurement setup: first compound 8 µM
Lab note: cut-off is 0.8. Strictly less in relative viability is t. Exactly 0.8 or more is f.

Take a look at these entries with their results.
Compound: O=c1cc(-c2cccc3c2Sc2ccccc2S3)oc(N2CCOCC2)c1 + Cc1cc(Nc2cc(N3CCN(C)CC3)nc(Sc3ccc(NC(=O)C4CC4)cc3)n2)n[nH]1 [Tozasertib] (partner 0.1 µM)
Qualitative label: t
//
Compound: O=c1cc(-c2cccc3c2Sc2ccccc2S3)oc(N2CCOCC2)c1 + C[C@]1(O)C[C@@H](c2nc(-c3ccc4ccc(-c5ccccc5)nc4c3)c3c(N)nccn32)C1 [Linsitinib] (partner 1 µM)
Qualitative label: f
//
Compound: O=c1cc(-c2cccc3c2Sc2ccccc2S3)oc(N2CCOCC2)c1 + C[C@@H](Oc1cc(-c2cnn(C3CCNCC3)c2)cnc1N)c1c(Cl)ccc(F)c1Cl [Crizotinib] (partner 1 µM)
Qualitative label: f

Exam item: Strictly below 0.8: is that where relative viability of O=c1cc(-c2cccc3c2Sc2ccccc2S3)oc(N2CCOCC2)c1 + CCNC(=O)c1noc(-c2cc(C(C)C)c(O)cc2O)c1-c1ccc(CN2CCOCC2)cc1 [Luminespib] (partner 0.01 µM) sits?
Marked response: f

Exam item: Strictly below 0.8: is that where relative viability of O=c1cc(-c2cccc3c2Sc2ccccc2S3)oc(N2CCOCC2)c1 + CC(=O)c1c(C)c2cnc(Nc3ccc(N4CCNCC4)cn3)nc2n(C2CCCC2)c1=O [Palbociclib] (partner 0.5 µM) sits?
Marked response: t
